- TARGET OR TEST SYSTEM: MDM2 (Homo sapiens, UniProt Q00987)
- Sequence (Q00987 whole entry): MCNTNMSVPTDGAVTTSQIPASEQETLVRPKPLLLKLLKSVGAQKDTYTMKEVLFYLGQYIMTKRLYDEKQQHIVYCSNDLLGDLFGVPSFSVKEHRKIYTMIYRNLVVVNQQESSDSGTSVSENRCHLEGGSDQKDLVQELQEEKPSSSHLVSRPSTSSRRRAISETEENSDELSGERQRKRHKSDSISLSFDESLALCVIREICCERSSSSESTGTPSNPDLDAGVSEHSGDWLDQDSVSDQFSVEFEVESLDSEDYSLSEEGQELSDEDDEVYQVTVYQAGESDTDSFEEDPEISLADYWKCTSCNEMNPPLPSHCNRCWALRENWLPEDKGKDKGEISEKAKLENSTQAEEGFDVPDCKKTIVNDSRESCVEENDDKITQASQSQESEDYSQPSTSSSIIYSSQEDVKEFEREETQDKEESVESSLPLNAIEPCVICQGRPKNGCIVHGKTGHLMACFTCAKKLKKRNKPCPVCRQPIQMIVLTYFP
- TEST DESCRIPTION: NMR-based binding assay, MDM2
- COND: imidazole scaffold, Table 2
PROPERTY MEASURED: Ki

Per the records, this compound ( Clc1ccc(-c2ncn(CC3CC3)c2-c2ccc(Cl)cc2)cc1 ) has Ki equal to ~50 µM

* * *

- TARGET OR TEST SYSTEM: MDM2 (Homo sapiens, UniProt Q00987)
- TEST DESCRIPTION: NMR-based binding assay, MDM2
- COND: imidazolidine scaffold, Table 3
pKi: −log10 of the molar value.
Kindly state pKi for each of the entries shown.

Per the records, this compound ( COC(=O)C1(C)N=CN(CC2CC2)C1c1c[nH]c2ccccc12 (stereo not shown) ) has pKi equal to ~4.30

Per the records, this compound ( COC(=O)C1(c2ccc(Cl)cc2)N=CN(CC2CC2)C1c1cc2ccc(Cl)cc2[nH]1 (stereo not shown) ) has pKi equal to ~4.30

Per the records, this compound ( COC(=O)C1(c2ccc(Cl)cc2)N=CN(CC2CC2)C1c1ccc(Cl)cc1 (stereo not shown) [drawing 44] ) has pKi equal to ~5.30

Per the records, this compound ( COC(=O)C1(c2ccccc2)N=CN(CC2CC2)C1c1ccc(Cl)cc1F (stereo not shown) [drawing 45] ) has pKi equal to ~5.70

Per the records, this compound ( COC(=O)C1(c2ccccc2)N=CN(CC2CC2)C1c1ccc(Br)cc1 (stereo not shown) ) has pKi equal to ~5.22

Per the records, this compound ( O=C(N1CCNCC1)C1(c2ccccc2)N=CN(CC2CC2)C1c1ccc(Cl)cc1 (stereo not shown) ) has pKi equal to ~6.00

Per the records, this compound ( COC(=O)C1(CCSC)N=CN(CC2CC2)C1c1ccc(Cl)cc1 (stereo not shown) ) has pKi equal to ~5.00

Per the records, this compound ( COC(=O)C1(c2ccccc2)N=CN(C2CCCCC2)C1c1ccc(Cl)cc1 (stereo not shown) ) has pKi equal to ~4.70

Per the records, this compound ( O=C(O)C1(c2ccccc2)N=CN(CC2CC2)C1c1ccc(Cl)cc1 (stereo not shown) ) has pKi equal to ~4.30

Per the records, this compound ( COC(=O)C1(c2ccccc2)N=CN(CC2CCCNC2)C1c1ccc(Cl)cc1 (stereo not shown) ) has pKi equal to ~4.70
